- Tested on: Wnt5a (protein binding on small-molecule microarray)
- Test Protocol: Wnt5a binders on small-molecule microarray, primary screen, biophysical, 635/667 nm fluorescence (AID 1142);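 further: fluorescence read at 667 nm with signal to noise per printed feature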
- Condition Parameters: 635 nm fluorescence, higher = more signal
Metric Name: composite z-score
Lab note: write the figure by itself, no unit.

Please review the entries below; each comes with its answer.
COCCOC(=O)N1C(=O)[C@@]2(c3cc(C#CCNC(N)=O)ccc31)[C@H](c1ccc(O)cc1)N1[C@H](c3ccccc3)[C@H](c3ccccc3)OC(=O)[C@H]1[C@@H]2C(=O)N1CCN(c2ncccn2)CC1 : 0.0474
CC(C)CNC(=O)[C@@]1(C)c2ccccc2C(=O)N(Cc2cc(C(F)(F)F)cc(C(F)(F)F)c2)[C@H]1c1ccc(CO)cc1 : -0.445
COCCCNC(=O)[C@@]1(c2ccc([N+](=O)[O-])cc2)CC(=O)N(CC23CC4CC(CC(C4)C2)C3)[C@@H]1c1ccc(CO)cc1I : 0.582

Now let's try a different one.
(Q) Provide only the value of recorded composite z-score for CCCNC(=O)[C@@]1(Sc2ccc(C)cc2)CC(=O)N(C(C)C)[C@@H]1c1ccc(CO)cc1I
(A) -0.272
